- test.system: Retinoic acid receptor RXR-alpha (Homo sapiens)
- method.description: qHTS assay for small molecule antagonists of retinoid X receptor alpha signaling (AID 588546);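 further: cells stimulated with 9-cis-retinoic acid as agonist; on the % scale 0 is the no-effect control and ±100 the full control effect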
- stated.conditions: HEK293T RXRa-UAS-bla, beta-lactamase ratio, antagonist mode
Records with an inconclusive call do not appear.
Form field: max response (one value per entry).
I only need the number, in %, no unit after it.

Consider the following illustrative entries.
# input Param item = Nc1ccccc1 ; retrieve measured max response.
# output 4.87

# input Param item = C[C@]12CCC(=O)C=C1CC[C@@H]1[C@@H]2CC[C@@]2(C)[C@H]1CC[C@]2(C)O ; retrieve measured max response.
# output 36.9

# input Param item = O=C1c2ccccc2C(=O)C1C(=O)C(c1ccccc1)c1ccccc1 ; retrieve measured max response.
# output 13.2

# input Param item = COc1cc(OC)c(OC)cc1C=O ; retrieve measured max response.
# output -9.79

# input Param item = O=C1c2ccccc2C(=O)c2ccccc21 ; retrieve measured max response.
# output -15.9

# input Param item = Nc1ccccc1C(=O)O ; retrieve measured max response.
# output 6.99

Further cases:
# input Param item = CC1(C)C(C=C(Cl)Cl)C1C(=O)OC(C#N)c1cccc(Oc2ccccc2)c1 (stereo not drawn) ; retrieve measured max response.
# output -18
